- target entity: T1, TNFR1 (Homo sapiens, UniProt P19438)
- T1 chain: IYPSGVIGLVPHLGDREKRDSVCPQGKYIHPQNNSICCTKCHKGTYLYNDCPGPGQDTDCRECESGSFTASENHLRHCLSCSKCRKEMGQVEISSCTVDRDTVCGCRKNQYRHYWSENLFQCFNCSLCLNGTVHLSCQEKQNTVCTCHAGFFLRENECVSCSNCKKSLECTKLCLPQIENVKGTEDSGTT
- experimental details: yeast display SC50
outcome measure: apparent Kd (screen) (nM)

[
  {
    "binder": "F63H (designed binder) MTLQELLREEALRRAEAEAFRYALELLAEKFPEQKEYLLDLAEEIESQIRSLSGVDVEDVRKHLDKEWAWVKELLAEHPAELAEVEAARAARLAELRAEVEAKVAA",
    "apparent Kd (screen) / nM": 6.43
  }
]

I. A87I (designed binder) MTLQELLREEALRRAEAEAFRYALELLAEKFPEQKEYLLDLAEEIESQIRSLSGVDVEDVRKFLDKEWAWVKELLAEHPAELAEVEIARAARLAELRAEVEAKVAA
II. S51P (designed binder) MTLQELLREEALRRAEAEAFRYALELLAEKFPEQKEYLLDLAEEIESQIRPLSGVDVEDVRKFLDKEWAWVKELLAEHPAELAEVEAARAARLAELRAEVEAKVAA
INPUT: Given the listed items, does I or II have the lesser reported apparent Kd (screen)? Response format: the label of the selected entry.
OUTPUT: II
(II: 0.593 nM, I: 0.869 nM)
